Test: Lactate dehydrogenase (LDH) release assay
Type: cell-based
Settings: 0% FBS 4Hr; read-out: LDH: Cytotoxicity assay EC50
Positions of bridges follow the written chain, without caps; N, C: chain ends. Non-standard residues stand in square brackets, D forms with d. Residues, ends and D or L forms follow the SMILES beside them. R8 = C=CCCCCCC[C@@](C)(N)C(=O)O; Cba = N[C@@H](CC1CCC1)C(=O)O; S5 = C=CCCC[C@](C)(N)C(=O)O
Please go through the items and note down their EC50.

Quick check: EC50 of CC(=O)N[C@@H](CCCCN=[N+]=[N-])C(=O)NCCC(=O)N[C@@H](CC(C)C)C(=O)N[C@H](C(=O)N[C@@H](Cc1ccccc1)C(=O)N[C@]1(C)CCCCCCC=CCCC[C@@](C)(C(=O)N[C@@H](CO)C(=O)N[C@@H](C)C(=O)N[C@@H](C)C(N)=O)NC(=O)[C@H](CC2CCC2)NC(=O)[C@H](CCC(N)=O)NC(=O)[C@H](C)NC(=O)[C@H](Cc2c[nH]c3ccccc23)NC(=O)[C@H](Cc2ccc(O)cc2)NC(=O)[C@H](CCCCN)NC1=O)[C@@H](C)O [MP-548, AZIDE-ATSP-7041 (E5K)] ? 12.3 µM

Quick check: EC50 of CC(=O)N[C@@H](CC(C)C)C(=O)N[C@H](C(=O)N[C@@H](Cc1ccccc1)C(=O)N[C@]1(C)CCCCCCC=CCCC[C@@](C)(C(=O)N[C@@H](C)C(=O)N[C@@H](C)C(=O)N[C@@H](C)C(=O)N[C@@H](C)C(=O)N[C@@H](C)C(=O)N[C@@H](C)C(N)=O)NC(=O)[C@H](CC(C)C)NC(=O)[C@H](CCC(N)=O)NC(=O)[C@H](C)NC(=O)[C@H](Cc2c[nH]c3ccccc23)NC(=O)[C@H](Cc2ccc(O)cc2)NC(=O)[C@H](CCC(=O)O)NC1=O)[C@@H](C)O [MP-688] (Ac-LTF[R8]EYWAQL[S5]AAAAAA-NH2; staple 4-11) ? > 50.7 µM

Quick check: EC50 of CC(=O)N[C@@H](CCCCN=[N+]=[N-])C(=O)NCCC(=O)N[C@@H](CCCCN)C(=O)N[C@H](C(=O)N[C@@H](Cc1ccccc1)C(=O)N[C@]1(C)CCCCCCC=CCCC[C@@](C)(C(=O)N[C@@H](CO)C(=O)N[C@@H](C)C(=O)N[C@@H](C)C(N)=O)NC(=O)[C@H](CC2CCC2)NC(=O)[C@H](CCC(N)=O)NC(=O)[C@H](C)NC(=O)[C@H](Cc2c[nH]c3ccccc23)NC(=O)[C@H](Cc2ccc(O)cc2)NC(=O)[C@H](CCC(=O)O)NC1=O)[C@@H](C)O [MP-546, AZIDE-ATSP-7041 (L1K)] ? > 50 µM

Quick check: EC50 of CC(=O)N[C@@H](CCCCN=[N+]=[N-])C(=O)NCCC(=O)N[C@@H](CC(C)C)C(=O)N[C@H](C(=O)N[C@@H](Cc1ccccc1)C(=O)N[C@]1(C)CCCCCCC=CCCC[C@@](C)(C(=O)N[C@@H](CO)C(=O)N[C@@H](C)C(=O)N[C@@H](C)C(N)=O)NC(=O)[C@H](CC2CCC2)NC(=O)[C@H](CCC(N)=O)NC(=O)[C@H](C)NC(=O)[C@H](Cc2c[nH]c3ccccc23)NC(=O)[C@H](Cc2ccc(O)cc2)NC(=O)[C@H](Cc2c[nH]cn2)NC1=O)[C@@H](C)O [MP-175, AZIDE-ATSP-7041 (E5H)] ? > 50 µM

Quick check: EC50 of CC(=O)N[C@@H](CCCCN=[N+]=[N-])C(=O)NCCC(=O)N[C@@H](CC(C)C)C(=O)N[C@H](C(=O)N[C@@H](Cc1ccccc1)C(=O)N[C@]1(C)CCCCCCC=CCCC[C@@](C)(C(=O)N[C@@H](CO)C(=O)N[C@@H](C)C(=O)N[C@@H](C)C(N)=O)NC(=O)[C@H](CC2CCC2)NC(=O)[C@H](Cc2c[nH]cn2)NC(=O)[C@H](C)NC(=O)[C@H](Cc2c[nH]c3ccccc23)NC(=O)[C@H](Cc2ccc(O)cc2)NC(=O)[C@H](CCC(=O)O)NC1=O)[C@@H](C)O [MP-176, AZIDE-ATSP-7041 (Q9H)] ? > 50 µM

Quick check: EC50 of CC(=O)N[C@@H](CC(C)C)C(=O)N[C@H](C(=O)N[C@@H](Cc1ccccc1)C(=O)N[C@]1(C)CCCCCCC=CCCC[C@@](C)(C(=O)N[C@@H](CO)C(=O)N[C@@H](C)C(=O)N[C@@H](C)C(N)=O)NC(=O)[C@H](CC2CCC2)NC(=O)[C@H](CC(C)C)NC(=O)[C@H](CCC(N)=O)NC(=O)[C@H](Cc2c[nH]c3ccccc23)NC(=O)[C@H](Cc2ccc(O)cc2)NC(=O)[C@H](Cc2c[nH]cn2)NC1=O)[C@@H](C)O [MP-199, ATSP-7041 (E5H)] (Ac-LTF[R8]HYWQL[Cba][S5]SAA-NH2; staple 4-11) ? > 50 µM

Quick check: EC50 of CC(=O)N[C@@H](CCCCN=[N+]=[N-])C(=O)NCCC(=O)N[C@@H](CC(C)C)C(=O)N[C@H](C(=O)N[C@@H](Cc1ccccc1)C(=O)N[C@]1(C)CCCCCCC=CCCC[C@@](C)(C(=O)N[C@@H](CO)C(=O)N[C@@H](C)C(=O)N[C@@H](C)C(N)=O)NC(=O)[C@H](CC2CCC2)NC(=O)[C@H](CCCCN)NC(=O)[C@H](C)NC(=O)[C@H](Cc2c[nH]c3ccccc23)NC(=O)[C@H](Cc2ccc(O)cc2)NC(=O)[C@H](CCC(=O)O)NC1=O)[C@@H](C)O [MP-550, AZIDE-ATSP-7041 (Q9K)] ? > 50 µM

Quick check: EC50 of CC(=O)N[C@@H](CCCCN=[N+]=[N-])C(=O)NCCC(=O)N[C@@H](CC(C)C)C(=O)N[C@H](C(=O)N[C@@H](Cc1ccccc1)C(=O)N[C@]1(C)CCCCCCC=CCCC[C@@](C)(C(=O)N[C@@H](CO)C(=O)N[C@@H](C)C(=O)N[C@@H](C)C(N)=O)NC(=O)[C@H](CC2CCC2)NC(=O)[C@H](CCC(N)=O)NC(=O)[C@H](CCCCN)NC(=O)[C@H](Cc2c[nH]c3ccccc23)NC(=O)[C@H](Cc2ccc(O)cc2)NC(=O)[C@H](CCC(=O)O)NC1=O)[C@@H](C)O [MP-549, AZIDE-ATSP-7041 (A8K)] ? > 50 µM

Quick check: EC50 of CC(=O)N[C@@H](CCCCN=[N+]=[N-])C(=O)NCCC(=O)NC(C)(C)C(=O)N[C@H](C(=O)N[C@@H](Cc1ccccc1)C(=O)N[C@]1(C)CCCCCCC=CCCC[C@@](C)(C(=O)N[C@@H](CO)C(=O)N[C@@H](C)C(=O)N[C@@H](C)C(N)=O)NC(=O)[C@H](CC2CCC2)NC(=O)[C@H](CCC(N)=O)NC(=O)[C@H](C)NC(=O)[C@H](Cc2c[nH]c3ccccc23)NC(=O)[C@H](Cc2ccc(O)cc2)NC(=O)[C@H](CCC(=O)O)NC1=O)[C@@H](C)O ? > 50 µM

Just for reference, paper PMC10786919 is where these values come from.
